Target: full-length GAS41, Avi-tagged, mono-biotinylated (human, UniProt O95619 1-227, biotin (mono-biotinylated on the Avi tag by BirA))
Sequence (O95619 whole entry): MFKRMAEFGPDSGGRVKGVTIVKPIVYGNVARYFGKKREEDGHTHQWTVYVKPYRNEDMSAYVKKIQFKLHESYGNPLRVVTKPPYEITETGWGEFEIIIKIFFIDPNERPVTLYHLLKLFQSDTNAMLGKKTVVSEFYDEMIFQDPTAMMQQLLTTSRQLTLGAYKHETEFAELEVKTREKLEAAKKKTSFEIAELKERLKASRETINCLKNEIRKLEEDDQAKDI
Assay: BLI
Ends that are not written are not given here.
readout: Kd (µM)
Reply numerically in µM, unit not repeated.

Per the record, ATK(Ac)AARK(Ac)SAP [H3K23acK27ac peptide] has Kd of 5
